- assayed system: T1, human CD19 (human, UniProt P15391 20-556)
- T1 construct: CD19 as expressed on Raji, NALM-6 and SU-DHL-6 cells; also called CD19 antigen; B-cell surface antigen B4
- T1 sequence: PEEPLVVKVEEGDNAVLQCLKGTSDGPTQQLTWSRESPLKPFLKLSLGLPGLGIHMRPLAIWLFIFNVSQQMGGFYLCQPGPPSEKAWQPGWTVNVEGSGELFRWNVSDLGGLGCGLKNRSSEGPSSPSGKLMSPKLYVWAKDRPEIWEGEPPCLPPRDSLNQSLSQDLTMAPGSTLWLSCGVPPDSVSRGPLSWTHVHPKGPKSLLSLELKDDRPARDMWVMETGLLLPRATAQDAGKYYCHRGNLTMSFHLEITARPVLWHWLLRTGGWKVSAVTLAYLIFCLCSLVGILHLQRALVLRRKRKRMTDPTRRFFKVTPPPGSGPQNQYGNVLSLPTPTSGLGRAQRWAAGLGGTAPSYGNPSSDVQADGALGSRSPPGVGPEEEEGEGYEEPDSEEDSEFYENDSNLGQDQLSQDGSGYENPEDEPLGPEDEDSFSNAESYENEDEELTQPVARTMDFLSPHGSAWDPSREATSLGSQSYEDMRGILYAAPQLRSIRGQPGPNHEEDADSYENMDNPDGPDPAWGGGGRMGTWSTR
- experimental protocol: flow cytometry, Raji cells, MPF vs chimeric FMC63
Record class 1 whenever relative MPF (% of chimeric FMC63) is at 30% or higher; record class 0 when lower.

Incoming: Does relative MPF (% of chimeric FMC63) meet or surpass 30% for VH16 R94K Y98F VL43 (antibody, human IgG1, name in Kabat numbering, V domains shown, substitutions in Kabat numbering) VH: QVQLVQSGGGVVQPGRSLRLSCAASGVSLPDYGVSWVRQAPGKGLEWVAVIWGSETTYYNSALKSRFTISRDNSKNTLYLQMNSLRAEDTAVYYCAKHYYFGGSYAMDYWGQGTLVTVSS VL: DIVMTQTPSSLSASVGDRVTITCRASQDISKYLNWYQQKPGKAPKLLIYHTSRLHSGVPSRFSGSGSGTDFTLTISSLQPEDFATYYCQQGNTLPYTFGPGTKVDIKR ?
Outgoing: class 1

Incoming: Does relative MPF (% of chimeric FMC63) meet or surpass 30% for VH16-R94K/VL43-V3Q-T7S-P44I-N92A (antibody, human IgG1, kappa, V domains shown, human IgG1/kappa) VH: QVQLVQSGGGVVQPGRSLRLSCAASGVSLPDYGVSWVRQAPGKGLEWVAVIWGSETTYYNSALKSRFTISRDNSKNTLYLQMNSLRAEDTAVYYCAKHYYYGGSYAMDYWGQGTLVTVSS VL: DIQMTQSPSSLSASVGDRVTITCRASQDISKYLNWYQQKPGKAIKLLIYHTSRLHSGVPSRFSGSGSGTDFTLTISSLQPEDFATYYCQQGATLPYTFGPGTKVDIKR ?
Outgoing: class 1

Incoming: Does relative MPF (% of chimeric FMC63) meet or surpass 30% for VH16-L78V/VL43-Y87F (antibody, human IgG1, name in Kabat numbering, V domains shown, substitutions in Kabat numbering) VH: QVQLVQSGGGVVQPGRSLRLSCAASGVSLPDYGVSWVRQAPGKGLEWVAVIWGSETTYYNSALKSRFTISRDNSKNTVYLQMNSLRAEDTAVYYCARHYYYGGSYAMDYWGQGTLVTVSS VL: DIVMTQTPSSLSASVGDRVTITCRASQDISKYLNWYQQKPGKAPKLLIYHTSRLHSGVPSRFSGSGSGTDFTLTISSLQPEDFATYFCQQGNTLPYTFGPGTKVDIKR ?
Outgoing: class 0

Incoming: Does relative MPF (% of chimeric FMC63) meet or surpass 30% for VH16 R94K Y97F VL43 (antibody, human IgG1, name in Kabat numbering, V domains shown, substitutions in Kabat numbering) VH: QVQLVQSGGGVVQPGRSLRLSCAASGVSLPDYGVSWVRQAPGKGLEWVAVIWGSETTYYNSALKSRFTISRDNSKNTLYLQMNSLRAEDTAVYYCAKHYFYGGSYAMDYWGQGTLVTVSS VL: DIVMTQTPSSLSASVGDRVTITCRASQDISKYLNWYQQKPGKAPKLLIYHTSRLHSGVPSRFSGSGSGTDFTLTISSLQPEDFATYYCQQGNTLPYTFGPGTKVDIKR ?
Outgoing: class 1

Incoming: Does relative MPF (% of chimeric FMC63) meet or surpass 30% for VH16-F67L/VL43-F71Y (antibody, human IgG1, name in Kabat numbering, V domains shown, substitutions in Kabat numbering) VH: QVQLVQSGGGVVQPGRSLRLSCAASGVSLPDYGVSWVRQAPGKGLEWVAVIWGSETTYYNSALKSRLTISRDNSKNTLYLQMNSLRAEDTAVYYCARHYYYGGSYAMDYWGQGTLVTVSS VL: DIVMTQTPSSLSASVGDRVTITCRASQDISKYLNWYQQKPGKAPKLLIYHTSRLHSGVPSRFSGSGSGTDYTLTISSLQPEDFATYYCQQGNTLPYTFGPGTKVDIKR ?
Outgoing: class 0
